Tested on: L1210 leukemia ip in BDF1 mice, survival T/C
measurementNotes: NCI In Vivo Anticancer Drug Screen. Data for tumor model L1210 Leukemia (intraperitoneal) in B6D2F1 (BDF1) mice
measurementParameters: endpoint: mean survival time; dose: 100.0 mg/kg/injection; schedule: Q04DX003 (ip); vehicle: Klucel (hydroxypropylcellulose) (HPC); higher = longer survival
Toxic doses and inconclusive results are not listed.
metric: T/C

What the record says about CC(=O)OC(C)C(=O)C(Cl)(Cl)Cl (stereo not drawn) : T/C is 96 % of control

What the record says about CCCCCCCCOc1ccc(N(C)C(N)=S)cc1 : T/C is 97 % of control

What the record says about CSCCC(C#N)(CCN(C)C)c1ccccc1 (stereo not drawn) : T/C is 96 % of control

What the record says about OC1CC2CCC(C2)C1(O)c1ccccc1 (stereo not drawn) : T/C is 93 % of control

What the record says about C(#CP(c1ccccc1)c1ccccc1)P(c1ccccc1)c1ccccc1 : T/C is 101 % of control

What the record says about CCCCN(CCCCS(=O)(=O)O)c1ccc(N=Nc2cc(Cl)ccc2Cl)cc1 : T/C is 94 % of control

What the record says about Cc1ccc(NC(=O)C(Cl)(Cl)Cl)cc1C : T/C is 93 % of control

What the record says about CCCCC(CC)COP(=S)(S)OCC(CC)CCCC.[Sn] (stereo not drawn) : T/C is 100 % of control

What the record says about O=C(NC(CO)C(=O)OCc1ccccc1)OCc1ccccc1 (stereo not drawn) : T/C is 104 % of control

What the record says about CCOc1ccc2cc(S(=O)(=O)O)ccc2c1N : T/C is 97 % of control

What the record says about CCN(C(=O)/C=C/c1ccccc1)C1CCCCC1 : T/C is 102 % of control

What the record says about CCCCNc1c(C(=O)OCC)c[nH]c(=O)c1C(C)=O : T/C is 97 % of control

What the record says about O=C1OCCN1S(=O)(=O)c1ccc([N+](=O)[O-])cc1 : T/C is 97 % of control

What the record says about O=C(Nc1ccc(NC(=O)C(Cl)Cl)cc1)C(Cl)Cl : T/C is 97 % of control

What the record says about CN(C)CCCN=C=NC1CCCCC1 : T/C is 98 % of control

What the record says about CCOC(=O)COc1ccc([N+](=O)[O-])cc1 : T/C is 106 % of control

What the record says about Nc1nc(O)c2[nH]c(N=Nc3ccc(-c4ccc(N=Nc5nc6nc(N)nc(O)c6[nH]5)cc4)cc3)nc2n1 : T/C is 98 % of control

What the record says about Nc1nc(N)nc(-c2cccc(Cl)c2)n1 : T/C is 102 % of control

What the record says about NC(=O)Nc1ccc(C(=O)O)cc1 : T/C is 100 % of control

What the record says about O=C(N/N=C/c1ccc(N(CCCl)CCCl)cc1)c1ccc(C(=O)N/N=C/c2ccc(N(CCCl)CCCl)cc2)cc1 : T/C is 95 % of control

What the record says about Nc1nc(=S)c2[nH]c(N=Nc3ccc(S(=O)(=O)Nc4ccccn4)cc3)nc2[nH]1 : T/C is 117 % of control

What the record says about CCOC(=O)c1cnc(SC)nc1Nc1ccc(F)cc1 : T/C is 88 % of control

What the record says about O=C(NC(=S)Nc1cccc(Cl)c1)c1ccccc1 : T/C is 95 % of control

What the record says about CCN(CC)C(=O)C1CN2CCc3cc(OC)c(OC)cc3C2CC1OC(C)=O (stereo not drawn) : T/C is 97 % of control

What the record says about CCOC(=O)C(C)Cl (stereo not drawn) : T/C is 103 % of control

What the record says about O=C(COc1ccccc1)Oc1c(Cl)c(Cl)c(Cl)c(Cl)c1Cl : T/C is 103 % of control

What the record says about CCCCCCCCCCSCCSCCSCCCCCCCCCC : T/C is 94 % of control

What the record says about CCCCNC(=O)NC(C(=O)OCC)C(=O)OCC : T/C is 100 % of control

What the record says about O=C(O)c1ccccc1C(=O)c1ccc2c3c(cccc13)CC2 : T/C is 107 % of control

What the record says about CC1CCC(C(C)C)C(N(C)Cc2cc(Cl)cc(Cl)c2O)C1 (stereo not drawn) : T/C is 104 % of control

What the record says about CN(C)C(=O)Sc1ccc(S(=O)(=O)F)cc1Cl : T/C is 101 % of control

What the record says about CC1(O)CCC2CC1C2(C)CO (stereo not drawn) : T/C is 101 % of control

What the record says about O=C(N/N=C/c1ccc2c(c1)CCC2)c1ccccc1N=Cc1ccc2c(c1)CCC2 : T/C is 86 % of control

What the record says about CCCCCCCCCCCCCCCOc1ccc(C=Nc2ccc(C)cc2)cc1 : T/C is 93 % of control

What the record says about CCOC(=O)c1cnc(SC)nc1Nc1ccccc1OC : T/C is 90 % of control

What the record says about CCCCCCCCCCCCCCCCCC(=O)NCCNC(=O)CCCCCCCCCCCCCCCCC : T/C is 90 % of control

What the record says about COC(=O)N1C2CCC(C2=C(C)C)N1C(=O)OC : T/C is 102 % of control

What the record says about O=C(Nc1ccccc1C(=O)c1ccccn1)c1ccccc1 : T/C is 104 % of control

These data points were gathered from PubChem BioAssay AID248.
